Taken from patent US20260242478A1.

Test system: T1, PSMA Fab (biotinylated (site not stated))
T1 construct: Biotinylated PSMA Fab captured on neutravidin coated plates in the phage ELISA; also called Anti-PSMA Fab; 006 PSMA Fab
Method summary: clonal phage ELISA, biotinylated PSMA Fab on neutravidin plate, anti-M13 HRP detection;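 also: crude clonal phage supernatants added to wells pretreated with blocking buffer either with or without PSMA antigen, bound phage read after washing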
Recorded endpoint: Phage binding ELISA signal, Anti-PSMA Fab
Enter a number only.

Consider the reported Phage binding ELISA signal, Anti-PSMA Fab for these binders:
{"Binder": "LDRMCVPLWMCEGF (tested as crude clonal phage supernatant) [Phage-3489]", "Reported measurement": 1.71}
{"Binder": "SDKFCVPEWMCEWI (tested as crude clonal phage supernatant) [Phage-3478]", "Reported measurement": 1.72}
{"Binder": "MDARCVPSWMCIGV (tested as crude clonal phage supernatant) [Phage-3479]", "Reported measurement": 1.72}
{"Binder": "YFKHCVPQWMCEGF (tested as crude clonal phage supernatant) [Phage-3482]", "Reported measurement": 1.72}
{"Binder": "VWKTCVPEWMCVGY (tested as crude clonal phage supernatant) [Phage-3477]", "Reported measurement": 1.73}

Inquiry: Which value of Phage binding ELISA signal, Anti-PSMA Fab has been reported for VSPMCRPAWMCEGL (tested as crude clonal phage supernatant) [Phage-3476] in the records?
Reply text: 1.73

Inquiry: Which value of Phage binding ELISA signal, Anti-PSMA Fab has been reported for YSQMCKPAWMCNGF (tested as crude clonal phage supernatant) [Phage-3486] in the records?
Reply text: 1.72

Inquiry: Which value of Phage binding ELISA signal, Anti-PSMA Fab has been reported for AERMCVPSWMCQGL (tested as crude clonal phage supernatant) [Phage-3484] in the records?
Reply text: 1.72
